Test System: T1, hAPLNR (Homo sapiens, UniProt P35414)
T1 construct: expressed in transfected cells
T1 sequence (P35414 1-380): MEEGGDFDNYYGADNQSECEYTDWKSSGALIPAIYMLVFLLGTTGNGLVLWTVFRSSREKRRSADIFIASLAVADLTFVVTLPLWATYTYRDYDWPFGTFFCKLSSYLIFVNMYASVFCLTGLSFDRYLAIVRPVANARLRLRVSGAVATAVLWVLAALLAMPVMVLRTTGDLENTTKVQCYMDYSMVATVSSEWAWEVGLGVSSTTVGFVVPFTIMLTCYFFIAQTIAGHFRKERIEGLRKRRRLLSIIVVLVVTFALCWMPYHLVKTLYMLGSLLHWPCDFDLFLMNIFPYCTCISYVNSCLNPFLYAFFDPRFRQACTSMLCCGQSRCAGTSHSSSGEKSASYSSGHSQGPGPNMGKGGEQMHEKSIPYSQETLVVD
Experimental Protocol: cyclic AMP (CRE-luciferase) assay, activation of hAPLNR in HEK293/CRE-luc/hAPLNR cells
Format: cell-based
Condition Details: Table 6A; % of maximum Apelin activation, without Apelin
Metric: % Activation at 100 nM mAb (at 10 uM Forskolin)

Molecule: H2aM9222N: anti-APLNR antibody, HCVR/LCVR SEQ ID NOs 34/42, mouse IgG2a Fc (antibody, V domains shown, mouse IgG2a Fc) VH: EVQLVESGGGLVQPGGSLRLSCAASGFTFSNYWMSWVRQAPGKGLEWVANIKQDGSERYYVGSVKGRFTISRGDAENSLYLQMNSLRAEDTAVYYCARDRFGYSAYDKGVRYYYGMDVWGQGTTVTVSS VL: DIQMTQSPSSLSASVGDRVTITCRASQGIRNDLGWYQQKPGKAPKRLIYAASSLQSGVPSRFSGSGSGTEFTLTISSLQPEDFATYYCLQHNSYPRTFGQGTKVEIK
Recorded Measurement: No Activation
--
Molecule: H2aM9227N: anti-APLNR antibody, HCVR/LCVR SEQ ID NOs 50/58, mouse IgG2a Fc (antibody, V domains shown, mouse IgG2a Fc) VH: EVQLVESGGGLVQPGGSLRLSCAASGFTFSSFWMSWVRQVPGKGLEWVANIKQDGSEKYYVDSVKGRFTISRDNAKNSLYLQMNSLRAEDTAVYYCARDRFGYSFYDKGVRYYYGMDVWGQGTTVTVSS VL: DIQMTQSPSSLSVSVGDRVTITCRASQGIRNDLGWYQQKPGKAPKRLIYATSSLQSGVPSRFSGSGSGTEFTLTISGLQPEDFATYYCLQHNSYPRTFGQGTKVEIK
Recorded Measurement: 12%
--
Molecule: H2aM9230N: anti-APLNR antibody, HCVR/LCVR SEQ ID NOs 82/90, mouse IgG2a Fc (antibody, V domains shown, mouse IgG2a Fc) VH: EVQLVESGGGLVQPGGSLRLSCAASGFTFSSFWMSWVRQVPGKGLQWVANIKQDGSEKYYVDSVKGRFTISRDNAKNSLYLQMNSLRAEDTAVYYCARDRFGYSVYDKGVRYYYGMDVWGQGTTVTVSS VL: DIQMTQSPSSLSVSVGDRVTITCRASQGIRNDLGWYQQKPGKAPKRLIYAASSLQSGVPSRFSGSGSGTEFTLTISGLQSEDFATYYCLQHKSYPRTFGQGTKVEIK
Recorded Measurement: No Activation
